The measurements presented in this section are drawn from patent US5134137A.

Test system: Streptococcus agalactiae
Assay: MIC, agar dilution, Streptococcus agalactiae
Assay type: cell-based
Conditions: Streptococcus agalactiae; strain UC3947; read-out: MIC
property: MIC

{"compound": "CO/N=C(\\C(=O)N[C@@H]1C(=O)N2C(C(=O)O)=C(CSSc3ccc(Cl)cc3)CS[C@H]12)c1csc(N)n1", "property": "MIC", "result": "≤ 0.06 mg/L"}
{"compound": "CO/N=C(\\C(=O)N[C@@H]1C(=O)N2C(C(=O)O)=C(CSC(=O)c3ccco3)CS[C@H]12)c1csc(N)n1 [ceftiofur, reference compound]", "property": "MIC", "result": "≤ 0.06 mg/L"}
{"compound": "CCCSSCC1=C(C(=O)O)N2C(=O)[C@@H](NC(=O)/C(=N\\OC)c3csc(N)n3)[C@H]2SC1", "property": "MIC", "result": "2 mg/L"}
{"compound": "CO/N=C(\\C(=O)N[C@@H]1C(=O)N2C(C(=O)O)=C(CSSc3ccc([N+](=O)[O-])cc3)CS[C@H]12)c1csc(N)n1", "property": "MIC", "result": "≤ 0.06 mg/L"}
{"compound": "CO/N=C(\\C(=O)N[C@@H]1C(=O)N2C(C(=O)O)=C(CSCC(N)=O)CS[C@H]12)c1csc(N)n1", "property": "MIC", "result": "≤ 0.06 mg/L"}
{"compound": "CO/N=C(\\C(=O)N[C@@H]1C(=O)N2C(C(=O)O)=C(CSSCC3=C(C(=O)O)N4C(=O)[C@@H](NC(=O)/C(=N\\OC)c5csc(N)n5)[C@H]4SC3)CS[C@H]12)c1csc(N)n1", "property": "MIC", "result": "≤ 0.06 mg/L"}
{"compound": "CO/N=C(\\C(=O)N[C@@H]1C(=O)N2C(C(=O)O)=C(CSSCc3ccco3)CS[C@H]12)c1csc(N)n1", "property": "MIC", "result": "≤ 0.06 mg/L"}
{"compound": "CO/N=C(\\C(=O)N[C@@H]1C(=O)N2C(C(=O)O)=C(CS)CS[C@H]12)c1csc(N)n1", "property": "MIC", "result": "≤ 0.06 mg/L"}
{"compound": "CCC(C)SSCC1=C(C(=O)O)N2C(=O)[C@@H](NC(=O)/C(=N\\OC)c3csc(N)n3)[C@H]2SC1 (some centres unmarked)", "property": "MIC", "result": "2 mg/L"}
{"compound": "CCCCSSCC1=C(C(=O)O)N2C(=O)[C@@H](NC(=O)/C(=N\\OC)c3csc(N)n3)[C@H]2SC1", "property": "MIC", "result": "2 mg/L"}
{"compound": "CO/N=C(\\C(=O)N[C@@H]1C(=O)N2C(C(=O)O)=C(CSSC3CCCCC3)CS[C@H]12)c1csc(N)n1", "property": "MIC", "result": "≤ 0.06 mg/L"}
{"compound": "CO/N=C(\\C(=O)N[C@@H]1C(=O)N2C(C(=O)O)=C(CO)CS[C@H]12)c1csc(N)n1 [desacetyl cefotoxime, reference compound]", "property": "MIC", "result": "≤ 0.6 mg/L"}
{"compound": "CO/N=C(\\C(=O)N[C@@H]1C(=O)N2C(C(=O)O)=C(CSSC)CS[C@H]12)c1csc(N)n1", "property": "MIC", "result": "≤ 0.06 mg/L"}
{"compound": "CO/N=C(\\C(=O)N[C@@H]1C(=O)N2C(C(=O)O)=C(CSSc3ccccc3)CS[C@H]12)c1csc(N)n1", "property": "MIC", "result": "≤ 0.06 mg/L"}
